From: the supplement of paper PMC5919970

- Tested on: TYKNU
- method summary: fractional viability relative to vehicle; TYKNU is a high-grade serous ovarian cancer line; higher = less growth inhibition
- condition label: 2uM; 72 h; genotype: sgCTRLA1 (non-targeting control)
Structures can show the parent of a compound that is named as a salt. Whole data set: some 2,000 compounds, median “fractional viability relative to vehicle” near 0.91, cut for the lowest 2% near 0.045. The sample as a whole holds a higher share of the lowest values than the screen did.
result type: fractional viability

[
  {
    "molecule": "Clc1cccc(CN=C2Nc3ccccc3NC23CCNCC3)c1",
    "endpoint result": 0.957
  },
  {
    "molecule": "CC1=CC(=O)c2ccccc2C1=O",
    "endpoint result": 1.1
  },
  {
    "molecule": "COc1cc2nc(N3CCN(C(=O)C4CCCO4)CC3)nc(N)c2cc1OC (stereo not drawn) [Terazosin HCl]",
    "endpoint result": 1.16
  },
  {
    "molecule": "O=C(c1ccc(F)c(F)c1Nc1ccc(I)cc1F)N1CC(O)([C@@H]2CCCCN2)C1",
    "endpoint result": 1.03
  },
  {
    "molecule": "COC(=O)c1ccc2c(c1)[nH]c1ncnc(NCCCN3CCCCC3)c12",
    "endpoint result": 1.05
  },
  {
    "molecule": "Cn1cncc1[C@@](N)(c1ccc(Cl)cc1)c1ccc2c(c1)c(-c1cccc(Cl)c1)cc(=O)n2C",
    "endpoint result": 0.64
  },
  {
    "molecule": "COc1cc2nc(N3CCCC3)nc(NCCCCCN3CCCC3)c2cc1OC",
    "endpoint result": 0.543
  },
  {
    "molecule": "Cc1[nH]nc2ccc(-c3cncc(OC[C@@H](N)Cc4ccccc4)c3)cc12",
    "endpoint result": 0.212
  },
  {
    "molecule": "COc1cc2c(NC3CCN(CC4CCCCC4)CC3)nc(N3CCCN(C(C)C)CC3)nc2cc1OCCCN1CCCCC1",
    "endpoint result": 0.723
  },
  {
    "molecule": "COc1cc2nc(N3CCCN(C)CC3)nc(NC3CCN(Cc4ccccc4)CC3)c2cc1OC",
    "endpoint result": 0.548
  },
  {
    "molecule": "O=C(O)C(Cc1ccccc1[N+](=O)[O-])=NNc1nc(-c2ccc(Cl)c(Cl)c2)cs1 (mixture of isomers)",
    "endpoint result": 0.775
  },
  {
    "molecule": "CC(C)C[C@H](NC(=O)CNC(=O)c1cc(Cl)ccc1Cl)B(O)O",
    "endpoint result": 0.107
  },
  {
    "molecule": "NC(=O)c1cnc(N[C@@H]2CCCC[C@@H]2N)nc1Nc1cccc(-n2nccn2)c1",
    "endpoint result": 0.853
  }
]
